# Tested on: MEK5
# Construct: gene MAP2K5
# protocol conditions: concentration: 1 μM,replicates: in singlicate; n = 1;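 also: KINOMEscan kinase panel screen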
// classify: if (%Inh < 30%) fulfilled else not fulfilled

Query string: Is it true that %Inh reported for `C[C@@H]1CNc2c(sc3ccc4nc(-c5ccc(O)cc5)ccc4c23)C(=O)N1` is less than 30%?
Result string: not fulfilled

---

# System: CSF1R
# protocol conditions: concentration: 1 μM,replicates: in singlicate; n = 1
Please mark class 1 if the recorded %Inh is equal to or greater than 90%, and class 0 if it falls below.

Worked cases, answers included:
molecule=Cc1ccn2nc(-c3ccc(F)cc3)c(-c3ccncc3)c2c1.Cl class_assignment="class 0"
molecule=Cc1n[nH]c2cc(Nc3ccnc(Nc4cccc(CN5CCOCC5)c4)n3)ccc12 class_assignment="class 0"
molecule=Cn1ccc2ncnc(Oc3ccc(NC(=O)Nc4cc(C(C)(C)C)on4)c(Cl)c3)c21 class_assignment="class 1"

Query string: Determine whether measured %Inh meets or exceeds 90% for N#Cc1cccc(C(=O)NC2CCN(c3ccnc(Nc4ccc(F)cc4)n3)C2)c1 (centres unmarked)
Result string: class 0

Query string: Determine whether measured %Inh meets or exceeds 90% for `C[C@@H](Oc1cc(-n2cnc3cc(-c4ccncc4)ccc32)sc1C(N)=O)c1ccccc1Cl`
Result string: class 0

---

Hi there, I'd appreciate the recorded %Inh for every entry that follows.
# Test system: PIK3C2B
# protocol conditions: concentration: 1 μM,replicates: in singlicate; n = 1

compound=CC(=O)Nc1nc2cnc(Nc3cc(NC(=O)c4cccc(CC(C)(C)C#N)c4)ccc3C)nc2s1 readout_label=%Inh result=14%
compound="CCNCC(Cc1ccccc1)NC(=O)c1cc(Br)c(-c2ccnc3[nH]ccc23)s1.Cl.Cl (centres unmarked) [GSK1383280]" readout_label=%Inh result=0%
compound=Cn1ccc2ncnc(Oc3ccc(NC(=O)Nc4cncc(C(F)(F)F)c4)c(Cl)c3)c21 readout_label=%Inh result=0%

// each compound listed below needs its %Inh
1. CC(C)S(=O)(=O)N1CCN(Cc2ccc3c(c2)nc(NC(=O)c2ccsc2)n3C[C@H](O)c2ccccc2)CC1 [GW635815]
2. CC(C)c1nc(-c2cccc(NS(=O)(=O)c3ccccc3)c2)c(-c2ccnc(Nc3ccc4c(c3)CN(C)CC4)n2)s1 [GSK1649598]
3. O=C(Nc1cccc(C(F)(F)F)c1)c1cccc(Oc2ccc3nccn3n2)c1
4. O=C(NCC1CC1)c1ccc(-c2cc(C(=O)NC3CC3)ccc2F)cc1 [GW810445]
5. Cc1cccc(-c2nc(Nc3ccncc3)c3sccc3n2)n1 [GW869641]

Result string:
0%
20%
99.3%
0%
29%

---

# System: ACVR1
# protocol conditions: concentration: 1 μM,replicates: in singlicate; n = 1
// classify: if (%Inh < 6%) true (1) else false (0)

Worked cases, answers included:
molecule=COC(=O)Nc1nc2cc(Oc3ccc(NC(=O)Nc4cc(C(F)(F)F)ccc4Cl)cc3)ccc2[nH]1.Cl class_assignment="true (1)"
molecule=CCn1c(-c2nonc2N)nc2cncc(CNC3CCNCC3)c21.Cl class_assignment="false (0)"
molecule=C[C@@H](Oc1cc(-n2cnc3cc(-c4ccncc4)ccc32)sc1C(N)=O)c1ccccc1Cl class_assignment="false (0)"
molecule=CCn1c(-c2nonc2N)nc2cncc(Br)c21 class_assignment="true (1)"

Query string: Is it true that %Inh reported for `Cn1cc(-c2cccc3c(N)c(C(N)=O)nnc23)cn1` is less than 6%?
Result string: false (0)

Query string: Is it true that %Inh reported for `Cn1ccc2ncnc(Oc3ccc(NC(=O)Nc4cccc(C(F)(F)F)c4)c(Cl)c3)c21` is less than 6%?
Result string: true (1)

Query string: Is it true that %Inh reported for `COc1cccc(C2=C(Nc3cccc(Cl)c3)C(=O)NC2=O)c1` is less than 6%?
Result string: false (0)

Query string: Is it true that %Inh reported for `NC(=O)Nc1sc(-c2ccc(F)cc2)cc1C(N)=O` is less than 6%?
Result string: true (1)

Query string: Is it true that %Inh reported for `Cn1ccc2ncnc(Oc3ccc(NC(=O)Nc4cncc(C(F)(F)F)c4)c(Cl)c3)c21` is less than 6%?
Result string: true (1)

Query string: Is it true that %Inh reported for `Cc1ccc(Nc2ccnc(Nc3ccc4c(c3)CS(=O)(=O)C4)n2)cc1O.Cl` is less than 6%?
Result string: false (0)

Query string: Is it true that %Inh reported for `NC(=O)c1ccc(-c2cc3ncnc(SCC(=O)O)c3s2)cc1` is less than 6%?
Result string: true (1)

Query string: Is it true that %Inh reported for `O=C(Nc1ccc(Oc2ccc3nc(NC(=O)C4CC4)cn3n2)c(F)c1)c1cccn(-c2ccccc2)c1=O` is less than 6%?
Result string: false (0)

Query string: Is it true that %Inh reported for `C[C@@H]1CNc2c(sc3ccc4nc(-c5ccc(O)cc5)ccc4c23)C(=O)N1` is less than 6%?
Result string: false (0)

Query string: Is it true that %Inh reported for `CNC(=O)c1ccccc1Nc1nc(Nc2cccc(CS(C)(=O)=O)c2)ncc1C.O=CO` is less than 6%?
Result string: false (0)

Query string: Is it true that %Inh reported for CS(=O)c1ccc(-c2coc3ccc(-c4n[nH]c(=O)o4)cc23)cc1 (stereo not drawn) is less than 6%?
Result string: true (1)

Query string: Is it true that %Inh reported for `C[C@@H](Oc1cc(-n2cnc3ccc(-c4ccncc4)cc32)sc1C(N)=O)c1ccccc1Cl` is less than 6%?
Result string: false (0)

Query string: Is it true that %Inh reported for `COc1cc2c(Nc3ccc(NC(=O)c4ccccc4)cc3)ncnc2cc1OCCCN1CCOCC1` is less than 6%?
Result string: true (1)

---

# Test system: EPHA7
# protocol conditions: concentration: 1 μM,replicates: in singlicate; n = 1
readout label: %Inh (%)
Numbers only, in %.

See these solved cases before continuing.
compound=O=C(Nc1ccc(Oc2ccc3nc(NC(=O)C4CC4)cn3n2)c(F)c1)c1cccn(-c2ccccc2)c1=O result_number=0
compound="O=C(Nc1n[nH]c2cc(-c3ccco3)ccc12)C1CC1 [SB-737447]" result_number=0
compound=CC(=O)Nc1nc2cnc(Nc3cc(NC(=O)c4cccc(CC(C)(C)C#N)c4)ccc3C)nc2s1 result_number=4
compound="CCNCC(Cc1ccccc1)NC(=O)c1cc(Br)c(-c2ccnc3[nH]ccc23)s1.Cl.Cl (stereo not shown) [GSK1383280]" result_number=9
compound="Cl.c1ccc(Oc2ccc(Nc3ccnc4cc(-c5ccc(CN6CCNCC6)o5)ccc34)cc2)nc1 [GW567142]" result_number=0
compound="Cc1nnc(-c2ccc3occ(-c4ccc(S(C)=O)cc4)c3n2)o1 (stereo not shown)" result_number=0

# context switch: different compound, same %Inh
Query string: Given the compound `Cn1ccc2ncnc(Oc3ccc(NC(=O)Nc4cc(C(C)(C)C)on4)c(Cl)c3)c21` , what is its reported %Inh?
Result string: 90

---

# Tested on: MEK1
# Construct: gene MAP2K1
# protocol conditions: concentration: 1 μM,replicates: in singlicate; n = 1
Hi there, I'd appreciate the recorded %Inh for every entry that follows.
Answers are plain numbers, in %.

See these solved cases before continuing.
compound=COc1cc2nccc(Nc3ccc(Oc4ccccc4)cc3)c2cc1OC.Cl result_number=96.9
compound=Nc1nccc(-c2ccc3c(N)n[nH]c3c2)n1 result_number=0
compound="CCNCC(Cc1ccccc1)NC(=O)c1cc(Br)c(-c2ccnc3[nH]ccc23)s1.Cl.Cl (stereo not shown)" result_number=0
compound=Cn1ccc2ncnc(Oc3ccc(NC(=O)Nc4cnn(C(C)(C)C)c4)c(Cl)c3)c21 result_number=0
compound=O=C(Nc1cccc(C(F)(F)F)c1)c1cccc(Oc2ccc3nccn3n2)c1 result_number=0
compound=Cc1n[nH]c2cc(Nc3ccnc(Nc4cccc(CN5CCOCC5)c4)n3)ccc12 result_number=14
compound=O=C(NOCC1CC1)c1cc(Br)c(F)c(F)c1Nc1ccc(I)cc1Cl result_number=31
compound=NC(=O)Nc1sc(-c2ccc(F)cc2)cc1C(N)=O result_number=30
compound=O=c1[nH]cc(-c2ccc(O)cc2)c2sc(-c3ccncc3)cc12 result_number=0

# context switch: different compound, same %Inh
Query string: Record COc1cc(Nc2nccc(N3CCC(NC(=O)c4cccc(C#N)c4)C3)n2)cc(OC)c1OC (stereo not shown) : what is its %Inh with MEK1?
Result string: 0

---

# Test system: GRK1
# protocol conditions: concentration: 1 μM,replicates: in singlicate; n = 1
Hi there, I'd appreciate the recorded %Inh for every entry that follows.
Give bare numbers, in %.

// each compound listed below needs its %Inh
1. C[C@@H]1CNc2c(sc3ccc4nc(-c5ccc(O)cc5)ccc4c23)C(=O)N1
2. C[C@@H]1CCN(C(=O)N2CCCC2)C[C@@H]1N(C)c1ncnc2[nH]ccc12
3. CC(=O)Nc1ccc(-c2cc3ncnc(SCC(=O)O)c3s2)cc1
4. Cn1ccc2ncnc(Oc3ccc(NC(=O)Nc4cnn(C(C)(C)C)c4)c(Cl)c3)c21

Result string:
[41, 17, 0, 18]

// each compound listed below needs its %Inh
1. Cc1n[nH]c2cc(Nc3ccnc(Nc4cccc(CN5CCOCC5)c4)n3)ccc12
2. O=C(Nc1cccc(C(F)(F)F)c1)c1cccc(Oc2ccc3nccn3n2)c1
3. CC(=O)c1c(-c2ccncc2)[nH]c(-c2ccncc2)c1C
4. Cc1ccc(Nc2ccnc(Nc3ccc4c(c3)CS(=O)(=O)C4)n2)cc1O.Cl

Result string:
[5, 9, 0, 2]

Query string: Given the compound COc1ccc(Nc2nccc(N3CCC(NC(=O)c4cccc(C#N)c4)C3)n2)cc1 (stereo not drawn) , what is its reported %Inh?
Result string: 0
